# TESTED TARGET: GlyT2 W563L mutant (Homo sapiens, UniProt Q9Y345, W563L)
# Construct: expressed in transfected cells; host or cells: Xenopus laevis oocytes (cRNA injection)
# Sequence (Q9Y345 whole entry W563L): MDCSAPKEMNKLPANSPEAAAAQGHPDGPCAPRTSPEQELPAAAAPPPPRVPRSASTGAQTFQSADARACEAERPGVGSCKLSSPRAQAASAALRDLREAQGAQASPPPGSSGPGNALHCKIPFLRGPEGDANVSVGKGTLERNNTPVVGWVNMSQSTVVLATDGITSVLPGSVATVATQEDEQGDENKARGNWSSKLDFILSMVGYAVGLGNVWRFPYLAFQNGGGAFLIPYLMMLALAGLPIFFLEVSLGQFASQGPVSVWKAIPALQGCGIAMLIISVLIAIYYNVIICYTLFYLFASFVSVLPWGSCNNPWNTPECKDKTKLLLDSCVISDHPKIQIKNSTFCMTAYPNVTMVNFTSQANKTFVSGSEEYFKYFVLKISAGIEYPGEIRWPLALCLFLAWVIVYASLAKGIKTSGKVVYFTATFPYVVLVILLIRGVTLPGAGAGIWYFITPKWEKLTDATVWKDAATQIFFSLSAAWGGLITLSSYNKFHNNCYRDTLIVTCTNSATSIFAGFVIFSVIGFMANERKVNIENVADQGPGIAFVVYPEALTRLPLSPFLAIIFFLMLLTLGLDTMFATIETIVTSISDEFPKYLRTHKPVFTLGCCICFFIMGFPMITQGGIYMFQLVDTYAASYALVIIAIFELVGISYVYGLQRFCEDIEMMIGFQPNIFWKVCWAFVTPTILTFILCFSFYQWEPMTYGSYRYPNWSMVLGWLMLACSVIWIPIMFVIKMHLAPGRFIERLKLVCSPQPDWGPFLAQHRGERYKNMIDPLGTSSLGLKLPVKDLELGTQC
# EXPERIMENTAL PROTOCOL: Glycine transport currents, two electrode voltage clamp, oocytes expressing GlyT2 W563L
# Format: cell-based
# CONDITION LABEL: GlyT2 W563L; mean (95% CI)
Entries and their log10 IC50 values follow.
Log10 applied to IC50; unit prior to transform: nM.

Field: example entries. Status: answers known.
MOLECULE | TESTED TARGET | log10 IC50
CCCCCCCC/C=C\CCCCCCCC(=O)N[C@@H](CC(=O)O)C(=O)O [oleoyl l-Aspartate] | GlyT2 W563L mutant (Homo sapiens, UniProt Q9Y345, W563L) | 3.06
CCCCCCCC/C=C\CCCCCCCC(=O)N[C@@H](CO)C(=O)O | GlyT2 W563L mutant (Homo sapiens, UniProt Q9Y345, W563L) | 2.82
CCCCCCCC/C=C\CCCCCCCC(=O)N[C@H](C(=O)O)C(C)C | GlyT2 W563L mutant (Homo sapiens, UniProt Q9Y345, W563L) | 3.88
CCCCCCCC/C=C\CCCCCCCC(=O)NCC(=O)O [N-oleoyl Glycine, reference compound] | GlyT2 W563L mutant (Homo sapiens, UniProt Q9Y345, W563L) | 2.88

--- query ---
Which log10 IC50 value is on record for `CCCCCCCC/C=C\CCCCCCCC(=O)N[C@@H](CCCCN)C(=O)O` ?
2.24
